Data credit: patent US11130741B2

Test system: S. aureus USA300 MRSA BAA 1717
QUANTITY_MEASURED: MIC (µg/mL)

Cl.NC1CCCC(CNc2cc(C(F)(F)F)cc3c2Nc2ccc(N4CCCC4)cc2S3)C1 (centres unmarked) [compound 300] = 1
CC1CC(C)CN(c2ccc3c(c2)Sc2cc(C(F)(F)F)cc(NC4CCN(CCN)CC4)c2N3)C1.Cl.Cl.Cl (centres unmarked) [compound 274] = 1
CC1CCN(c2ccc3c(c2)Sc2cc(C(F)(F)F)cc(NC4CCN(CCN)CC4)c2N3)CC1.Cl.Cl [compound 307] = 2
Cl.Cl.NCCNCCC(=O)Nc1cc(C(F)(F)F)cc2c1Nc1ccc(N3CCCC3)cc1S2 [compound 302] = 8
CC1CCCN(c2ccc3c(c2)Sc2cc(C(F)(F)F)cc(NC4CCN(CCN)CC4)c2N3)C1.Cl.Cl (centres unmarked) [compound 301] = 2
CCN(CC)c1ccc2c(c1)Sc1cc(C(F)(F)F)cc(NC3CCN(CCN)CC3)c1N2.Cl.Cl.Cl [compound 306] = 2
Cl.Cl.NCCN1CCC(Nc2cc(C(F)(F)F)cc3c2Nc2ccc(N4CCCC4)cc2S3)CC1 [compound 284] = 2
CC1(C)CCCN(c2ccc3c(c2)Sc2cc(C(F)(F)F)cc(NC4CCN(CCN)CC4)c2N3)C1.Cl.Cl [compound 305] = 1
